assay_context: 318.15 K; 101.33 kPa
readout_kind: viscosity (mPa·s)

[[record]]
compound = "CC(=O)CC(C)C"
observed_result = 0.447

[[record]]
compound = "CCCCCCO"
observed_result = 2.601

[[record]]
compound = "O=C1CCCCC1"
observed_result = 1.311

[[record]]
compound = "CCC(C)N (centres undefined)"
observed_result = 0.3274


###

assay_context: 323.15 K; 101 kPa
readout_kind: viscosity (mPa·s)

[[record]]
smiles_text = "CC(=O)CC(C)C"
readout_kind = "viscosity"
result_unit = "mPa·s"
observed_result = 0.401

[[record]]
smiles_text = "OCCOc1ccccc1"
readout_kind = "viscosity"
result_unit = "mPa·s"
observed_result = 5.927

[[record]]
smiles_text = "CCCC(=O)[O-].CC[NH+](CC)CCO"
readout_kind = "viscosity"
result_unit = "mPa·s"
observed_result = 16.82

[[record]]
smiles_text = "CCCCCCO"
readout_kind = "viscosity"
result_unit = "mPa·s"
observed_result = 2.072

